Test system: OVCAR-4 ovarian
assay name: NCI tumour cell line growth inhibition, 48 h; in the data active = GI50 below about 0.43 µM; inactive = the rest
Labels: yes (1) = active, no (0) = inactive

>>> class_assignment("N#Cc1ccc(O)c(C2=NCC(c3ccc(-c4ccccc4)cc3)O2)c1 (stereo unspecified)")
"yes (1)"
>>> class_assignment("COc1cc2c(cc1OC)-c1c(c3ccc([N+](=O)[O-])cc3c(=O)n1CCCN=[N+]=[N-])C2=O")
"no (0)"
>>> class_assignment("CC[C@H](C)[C@H](NC(=O)[C@H]1CCCCN1C)C(=O)N(C)[C@H](C[C@@H](OC(C)=O)c1nc(C(=O)NC23C4C5C2C2C3C4C52C(=O)OC)cs1)C(C)C (stereo partly specified)")
"yes (1)"
>>> class_assignment("Cl.[O-]c1cccc2cccnc12.[O-]c1cccc2cccnc12.[O-]c1cccc2cccnc12.[O-]c1cccc2cccnc12.[Ti+4]")
"no (0)"
>>> class_assignment("O=c1oc2ccc(I)cc2c(=O)n1-c1ccc(I)cc1F")
"yes (1)"
>>> class_assignment("Cc1c(C(=O)/C=C/c2ccc(Cl)cc2)nnn1-c1ccnc2c(C(F)(F)F)cccc12")
"yes (1)"

---

Tested on: BT-549 breast
assay name: NCI tumour cell line growth inhibition, 48 h
endpoint name: TGI

>>> result("O=C(Nc1ccccc1)c1cc2cc(CCl)ccc2oc1=O")
"> 100 µM"
>>> result("COc1ccc2[nH]cc(Cc3c[nH]c4ccc(OC)cc34)c2c1")
"36.1 µM"
>>> result("Fc1ccc(-c2c(-c3ccncc3)[nH]c3cccnc23)cc1")
"> 25 µM"
>>> result("CCOC(OCC)[C@@H]1C[C@@H]2N(O[C@H](OC3CCCC3(c3ccccc3)c3ccccc3)[C@H](OC(C)=O)[C@@]2(CC)Cc2ccc(OC)c(OC)c2)O1 (stereo partly specified)")
"> 100 µM"
>>> result("C[N+]1(C)C/C(=C\\C=C\\c2ccccc2)C(=O)/C(=C/C=C/c2ccccc2)C1")
"8.39 µM"
>>> result("Cc1c2c(n3c(nc4ccccc43)c1C#N)NCC2")
"> 10 µM"
>>> result("N#Cc1ccc(C(=O)c2cnn(-c3ccc(F)cc3)c2N)cc1")
"> 25 µM"
>>> result("C#Cc1cccc(Nc2ncnc3ccc(-c4cnc(N)nc4)cc23)c1")
"9.37 µM"
>>> result("NCCNc1ccc(NCCN)c2c1C(=O)c1c(O)ccc(O)c1C2=O")
"2.18 µM"
>>> result("COc1c(N2CCCCC2)c2c(=O)c3ccccc3oc2c2c3ccccc3n(C)c12")
"> 100 µM"
>>> result("O=C1/C(=C/c2cccc([N+](=O)[O-])c2)Cc2ccccc21")
"> 100 µM"
>>> result("CCOP(=O)(OCC)C(NC(c1ccccc1)c1ccccc1)c1ccsc1 (stereo unspecified)")
"52.3 µM"
>>> result("O=[N+]([O-])c1ccc(C2NC(=S)NC3c4cc([N+](=O)[O-])ccc4CCCC23)cc1 (stereo unspecified)")
"> 100 µM"
>>> result("CSc1nc(SC)c2c(C)c(Br)[nH]c2n1")
"> 100 µM"
>>> result("CCN(CC)CCC(=O)Nc1ccc2sc3ccccc3c(=O)c2n1")
"36.1 µM"
>>> result("CCCCCCCCCCCCCC(=O)NO")
"33.1 µM"
>>> result("CC(C)(C)c1cc(OCc2n[nH]c(=S)n2N)c(Cl)cc1OCc1n[nH]c(=S)n1N")
"> 100 µM"
>>> result("O=C1c2c(c3c4ccccc4n(CCCCCCN4CCOCC4)c3c3[nH]c4ccccc4c23)C(=O)N1O")
"46.9 µM"
>>> result("N#Cc1c2c(c(Nc3cccc(C(F)(F)F)c3)n3c1nc1ccccc13)CCCC2")
"95.3 µM"
>>> result("COc1ccc2[nH]cc(C3(c4c[nH]c5ccc(OC)cc45)C(=O)Nc4ccc(Cl)cc43)c2c1")
"56.8 µM"
>>> result("O=C(CS(=O)c1nc2ccccc2nc1-c1ccccc1)Nc1ccc(Cl)cc1 (stereo unspecified)")
"53.1 µM"

Attribution: PubChem BioAssay (NCI)
